B1: NR2F2 (parent)
chain: NIPFFPDLQITDQVALLRLTWSEL

Variants of: B1
ASSAY NOTES: protein stability index of a GFP-peptide fusion (GPS, HEK-293T) (PSI 1-6); higher = more stable;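 further: lentivirally expressed fusions sorted by FACS into six bins by GFP to DsRed ratio, PSI derived from sequencing read proportions per bin multiplied by bin number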
STUDY CONDITIONS: c terminus: a fixed tail appended
Classification field. Basis: protein stability index. Definitions: low (below 2), intermediate (2 to below 3), high (3 or more)

IN: Tag the class for NIPFFPDLQITDQLALLRLTWSEL [V14L]
OUT: intermediate
